Let's look at some binders and their measured koff.
biological target: T1, recombinant RSV-F protein (RSV A2 strain fusion (F) protein with added His tag) (human respiratory syncytial virus, A2 …, UniProt P03420 26-524); assay: SPR (Biacore), antibody captured, RSV-F as analyte
T1 construct: also called RSV-F recombinant protein
T1 sequence (P03420 26-109, chain 1 of 2): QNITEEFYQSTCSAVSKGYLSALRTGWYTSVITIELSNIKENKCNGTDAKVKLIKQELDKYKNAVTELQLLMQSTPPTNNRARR
T1 sequence (P03420 137-524, chain 2 of 2): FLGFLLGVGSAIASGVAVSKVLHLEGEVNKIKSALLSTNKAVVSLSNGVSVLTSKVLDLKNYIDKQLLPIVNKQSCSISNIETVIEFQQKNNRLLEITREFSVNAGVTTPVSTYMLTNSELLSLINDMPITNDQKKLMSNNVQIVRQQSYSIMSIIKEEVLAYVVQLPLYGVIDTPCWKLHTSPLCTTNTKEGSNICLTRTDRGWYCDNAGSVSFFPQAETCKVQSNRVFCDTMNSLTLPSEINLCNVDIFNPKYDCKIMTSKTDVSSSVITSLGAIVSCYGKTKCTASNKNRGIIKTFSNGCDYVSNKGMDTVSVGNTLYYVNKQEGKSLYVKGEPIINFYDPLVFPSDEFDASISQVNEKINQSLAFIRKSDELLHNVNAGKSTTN
MEASURED PARAMETER: koff

# BINDER, MEASUREMENT
data = [
    ("A2-M (antibody, V domains shown, also called humanized mutant antibody A2-M) VH: QVTLKESGPALVKPTQTLTLTCTFSGFSLSTSGMGVSWIRQPPGKALEWLAHIYWDDDKNFNPSLRSRLTITKDPSKNQVVLTMTNMDPVDTATYFCARKLYNDYDYILDYWGQGTTVTVSS VL: DIVMTQSPLSLPVTPGEPASISCRSSKSLLHSNGITYLMWFLQKPGQSPQLLIYQMSNLASGVPDRFSGSGSGTDFTLKISRVEAEDVGVYYCAQNLELWTFGQGTRLEIK", "0.000138 s⁻¹"),
    ("A2-A (antibody, human IgG1, kappa, V domains shown, also called humanized mutant antibody A2-A) VH: QVTLKESGPALVKPTQTLTLTCTFSGFSLSTSGMGVSWIRQPPGKALEWLAHIYWDDDKNFNPSLRSRLTITKDPSKNQVVLTMTNMDPVDTATYFCARKLYNDYDYILDYWGQGTTVTVSS VL: DIVMTQSPLSLPVTPGEPASISCRSSKSLLHSNGITYLAWFLQKPGQSPQLLIYQMSNLASGVPDRFSGSGSGTDFTLKISRVEAEDVGVYYCAQNLELWTFGQGTRLEIKR", "0.000117 s⁻¹"),
    ("A2-G (antibody, human IgG1, kappa, V domains shown, also called humanized mutant antibody A2-G) VH: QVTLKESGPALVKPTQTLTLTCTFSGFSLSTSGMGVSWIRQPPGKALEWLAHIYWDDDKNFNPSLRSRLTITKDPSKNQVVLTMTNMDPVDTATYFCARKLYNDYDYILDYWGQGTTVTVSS VL: DIVMTQSPLSLPVTPGEPASISCRSSKSLLHSNGITYLGWFLQKPGQSPQLLIYQMSNLASGVPDRFSGSGSGTDFTLKISRVEAEDVGVYYCAQNLELWTFGQGTRLEIKR", "0.000138 s⁻¹"),
    ("A2-I (antibody, V domains shown, also called humanized mutant antibody A2-I) VH: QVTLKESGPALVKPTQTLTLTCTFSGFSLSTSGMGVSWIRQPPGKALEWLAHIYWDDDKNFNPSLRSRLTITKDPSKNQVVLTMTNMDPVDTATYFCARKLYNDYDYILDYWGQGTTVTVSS VL: DIVMTQSPLSLPVTPGEPASISCRSSKSLLHSNGITYLIWFLQKPGQSPQLLIYQMSNLASGVPDRFSGSGSGTDFTLKISRVEAEDVGVYYCAQNLELWTFGQGTRLEIK", "0.000162 s⁻¹"),
]
